Where these numbers come from: patent US10093630B2

measured_target: ABHD6 (Mus musculus, UniProt Q8R2Y0)
Construct: Proteomes (mouse brain membrane fraction or cell lysates); from tissue; host or cells: mouse brain membrane fraction (or cell lysates, not specified)
Sequence (Q8R2Y0 whole entry): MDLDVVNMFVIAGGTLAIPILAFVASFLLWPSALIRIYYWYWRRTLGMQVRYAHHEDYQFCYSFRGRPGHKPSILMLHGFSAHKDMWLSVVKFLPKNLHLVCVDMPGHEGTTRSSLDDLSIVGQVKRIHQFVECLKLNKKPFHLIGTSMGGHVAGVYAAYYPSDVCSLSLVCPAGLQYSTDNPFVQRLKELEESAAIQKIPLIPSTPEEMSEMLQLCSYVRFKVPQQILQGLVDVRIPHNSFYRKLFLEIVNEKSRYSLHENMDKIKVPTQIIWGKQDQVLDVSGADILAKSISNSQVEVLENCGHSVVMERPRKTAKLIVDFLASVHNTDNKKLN
method_summary: In vitro competitive activity-based protein profiling (gel-based, FP-Rh or HT-01 probe)
Assay type: biochemical
recorded_conditions: 10 μM inhibitor; read-out: % Inhibition at 10 μM, C = ABHD6
Parameter: inhibition at 10 µM. Scope: all listed entries.

{"columns": ["structure_string", "inhibition at 10 µM"],
 "data": [
  ["O=C(N1CCN(Cc2ccc(C(F)(F)F)cc2N2CCCC2)CC1)n1cc(-c2ccc(C(F)(F)F)cc2)cn1", "> 75%"],
  ["Cc1cnn(C(=O)N(C)CCN(C)Cc2ccccc2)c1", "< 25%"],
  ["Cc1cnn(C(=O)N2CCN(Cc3ccc(-c4ccccc4)cc3)CC2)c1", "> 75%"],
  ["N#Cc1cnn(C(=O)N2CCN(Cc3ccc(-c4ccccc4)cc3OCc3ccccc3)CC2)c1", "> 75%"],
  ["O=C(N1CCN(Cc2ccccc2)CC1)n1cccn1", "> 75%"],
  ["O=C(c1cnn(C(=O)N2CCN(Cc3ccc4c(c3)OCO4)CC2)c1)N1CCCC1", "> 75%"]
]}
